Assay: in vitro
Type: cell-based
Conditions: human, mt-4 cells
Parameter: CC50. Scope: all listed entries.
Number in µg/mL, nothing else.

// known answers, use as guide
CC(C)=CCN1CCn2c(=S)[nH]c3cccc(c32)C1C (stereo not shown) ... 177
CC(C)=CCN1[C@H](C)Cn2c(=S)[nH]c3cccc(c32)[C@@H]1C (relative stereo) ... 23
CC(C)=CCN1[C@H](C)Cn2c(=S)[nH]c3cccc(c32)[C@H]1C (relative stereo) ... 23

Now examine the next entry.
query: Please look up its CC50: CCCN1CCn2c(=S)[nH]c3cccc(c32)C1C (stereo not shown)
result: 129
